PROTOCOL NOTES: Plasmodium falciparum growth inhibition, primary screen, strain 3D7, DAPI fluorescence, 100 nL (AID 1184);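 note: parasites grown inside human red blood cells in medium with human serum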
TEST CONTEXT: P. falciparum 3D7 growth, 3 d, higher = more signal
MEASURED METRIC: z-score
Hey, just send me the number, nothing else.

A selection of reference data follows.
COMPOUND	MEASURED METRIC	OBSERVED
CO[C@H]1O[C@H](CO)[C@@H](OC(=O)Nc2ccccc2)[C@H](OC(=O)Nc2ccccc2-c2ccccc2)[C@H]1OC(=O)Nc1ccccc1-c1ccccc1	z-score	-1.81
COc1ccc(C#Cc2ccc3c(c2)[C@]2(C(=O)N3)[C@H](c3ccc(O)cc3)N3[C@H](c4ccccc4)[C@H](c4ccccc4)OC(=O)[C@H]3[C@@H]2C(=O)N2CCN(c3ncccn3)CC2)cc1	z-score	-2.28
CO[C@H]1O[C@H](CO)[C@@H](OC(=O)CCc2ccccc2)[C@@H]2OC(=O)[C@H](Cc3ccccc3)C/C=C/C[C@@H](Cc3ccccc3)C(=O)O[C@@H]12	z-score	-1.58
COc1ccc([Si](C)(C)[C@@H]2[C@@H](CC(=O)N3CCC[C@H]3CO)O[C@]3(C(=O)N(Cc4ccc(N5CCC5=O)cc4)c4ccccc43)[C@H]2C)cc1	z-score	-0.0482
C[C@@H](OCc1ccccc1)C1NC(=O)[C@@]23C(=O)N[C@@H](Cc4ccccc4)C2[C@H](C)[C@@]2(C)O[C@H]2C3/C=C/C/C=C\CNC(=O)[C@@H]2CCCN2C1=O (stereo partly specified)	z-score	-2.58

Lab book: z-score of `C=C(C(=O)CC[C@H](OC(C)=O)c1ccc(CO)o1)C(C)C` noted as -2.1

----------
SYSTEM NAME: NADPH oxidase 4 (Homo sapiens)
PROTOCOL NOTES: NOX4-dependent H2O2 signal modulators, primary screen, NOX inhibitor project, cell-based, HEK293-NOX4, tetracycline-induced, Amplex Red fluorescence (AID 1160)
TEST CONTEXT: 45 min, higher = more signal, called active from +8 up or from −8 down
MEASURED METRIC: z-score
Just the number, please, no unit after it.

The cases that follow already have their z-score on record.
GIVEN SMILES	z-score
COCCCNC(=O)[C@@]1(CCS(=O)(=O)c2ccccc2)N=C(c2ccc(OCCCO)cc2)O[C@H]1c1ccccc1CN=[N+]=[N-]	-0.383
COC(=O)C(CC#Cc1ccc2c(c1)[C@]1(C(=O)N2)[C@H](C(N)=O)[C@H]2C(=O)O[C@H](c3ccccc3)[C@H](c3ccccc3)N2[C@@H]1c1ccc(O)cc1)C(=O)OC	0.297
COCCCNC(=O)[C@@]1(Cc2ccccc2CN=[N+]=[N-])COC(c2ccc(OCCCO)cc2)=N1	-1.03
COC(=O)c1c2oc(c1C(=O)OC)C(=O)N[C@@H](C(C)C)Cn1nncc1C1(CCCCC1)NC(=O)N[C@H](CO)CC2	0.991
CCCCCCC#C[Si](O[C@H](c1ccccc1)c1cn(Cc2ccccc2)nn1)(C(C)C)C(C)C	0.369

z-score on NADPH oxidase 4 (Homo sapiens) for `CC(C)C[C@@H]1NC(=O)[C@H]2C[C@@H](C(=O)NCCCC[N+](C)(C)C)[C@@H](c3cccc(OCCO)c3)N2C1=O` is -0.815

Tested on NADPH oxidase 4 (Homo sapiens): `CCCCC(=C=CC[C@H](O)c1cccc(OCCO)c1)CCO` . Observed z-score: 0.362

Test item `CC(C)(C)OC(=O)CC[C@@]12N=C(c3ccc(OCCCO)cc3)O[C@@H]1c1ccccc1CN(Cc1ccccc1)C2=O` ; NADPH oxidase 4 (Homo sapiens); reported z-score was -0.441

Sample `C=C(COC)C(=O)CC[C@@H](OC(=O)c1ccccc1-c1ccccc1C(=O)O)c1cccc(OCCO)c1` , system: NADPH oxidase 4 (Homo sapiens). Its z-score is 1.34

----------
composite z-score values for the compounds below.
System: glycogen synthase kinase-3 (GSK3A per assay name; protocol says GSK3B)
PROTOCOL NOTES: GSK3 binders on small-molecule microarrays, primary screen, biochemical, small-molecule microarray, 635 nm fluorescence, GSK3A (AID 1103); note: the record names both GSK3A and GSK3B
TEST CONTEXT: small-molecule microarray binding, fluorescence 635 nm; higher = more signal
Answer with a bare number; do not write a unit.

GIVEN SMILES	MEASURED METRIC	OBSERVED
CC(C)(C)OC(=O)CC[C@@]1(C(=O)N2CCOCC2)N=C(c2ccc(OCCCO)cc2)O[C@@H]1c1ccccc1	composite z-score	0.943
NC(=O)NCC#Cc1ccc2c(c1)[C@]1(C(=O)N2)[C@H](c2ccc(OCCO)cc2)N2[C@H](c3ccccc3)[C@H](c3ccccc3)OC(=O)[C@H]2[C@@H]1C(=O)Nc1nc2ccccc2s1	composite z-score	-0.282
O=C(O)[C@H]1C[C@H]2C(=O)NCC(=O)N2[C@H]1c1cccc(OCCO)c1	composite z-score	0.444
CC(=O)NCCCC[C@@H]1NC(=O)[C@@H]2C[C@H](C(=O)O)[C@H](c3cccc(OCCO)c3)N2C1=O	composite z-score	1.21
C=CC[C@@H](OC(=O)Nc1ccc(SC)cc1)c1ccc(OCCO)cc1	composite z-score	-0.381
COc1ccc([Si](C)(C)[C@H]2[C@H](CC(=O)N(CCO)Cc3ccccc3)O[C@@]3(C(=O)N(Cc4ccc(N5CCOC5=O)cc4)c4ccccc43)[C@@H]2C)cc1	composite z-score	-0.137
CC(C)(C)OC(=O)CC[C@@]1(C(=O)NCc2ccccc2)N=C(c2ccc(OCCCO)cc2)O[C@@H]1c1ccccc1CN=[N+]=[N-]	composite z-score	1.3

Now for the compound whose composite z-score we want.
Noted for `CN(C)CCCC[C@@H]1NC(=O)[C@@H]2C[C@H](C(=O)NCCCCCNC(=O)CS)[C@H](c3cccc(OCCO)c3)N2C1=O` : its composite z-score reads 0.684

----------
PROTOCOL NOTES: modulators of S6 phosphorylation in cells, primary screen, cell-based, A549, cytoblot, luminescence, serum-stimulated (AID 1158);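 note: serum-stimulated A549 lung adenocarcinoma cells; signal is phosphorylated S6 detected by cytoblot immunostaining with HRP secondary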
TEST CONTEXT: A549 phospho-S6 cytoblot, 5 h, higher = more signal
Please enter true (1) where z-score is greater than or equal to 0.8, and false (0) where it is lower.

Some solved entries appear below for comparison.
>>> df
                                   molecule  category_label
0  CC1CC/C=C\[C@H]2OC34C=CCN(C(C)C)C(=O)[C@H]3N(C(CO)C(C)C)C(=O)[C@@H]4C2C(=O)O1 (stereo not given in full)       false (0)
1  CC(C)(C)OC(=O)CC[C@@]12N=C(c3ccc(OCCCO)cc3)O[C@@H]1c1ccccc1CN(Cc1ccccc1)C2=O       false (0)
2  CCOC(=O)C[C@H]1[C@H](OC(=O)Cc2ccc3c(c2)OCO3)[C@@H](NC(=O)c2ccc3ccccc3c2)c2cc(OCCCO)ccc2N1C(=O)c1ccc2ccccc2n1        true (1)

[Q] Reported z-score at or above 0.8? `O=c1n(-c2ccccc2)c(=O)n2n1CC(COc1ccccc1)=C1[C@@H](CCc3ccccc3)OB(O)C[C@@H]12`
[A] false (0)

[Q] State whether the measured z-score reaches 0.8, counting equality as reaching it, for `CO[C@H]1O[C@H](CO)[C@@H](OC(=O)CCc2ccccc2)[C@@H]2OC(=O)[C@H](Cc3ccccc3)C/C=C/C[C@@H](Cc3ccccc3)C(=O)O[C@@H]12`
[A] true (1)

[Q] Record `CO[C@H]1O[C@H](CO)[C@@H](OC(=O)Nc2ccccc2)[C@H](OC(=O)Nc2ccccc2-c2ccccc2)[C@H]1OC(=O)Nc1ccccc1-c1ccccc1` ; criterion: z-score no lower than 0.8. Met?
[A] false (0)

[Q] Kindly determine if z-score recorded for `CC(C)[Si](C#C[Si](C(C)C)(C(C)C)C(C)C)(O[C@H](C)c1cn([C@H](C)c2ccccc2)nn1)C(C)C` is above or exactly 0.8.
[A] false (0)

[Q] For this molecule, is measured z-score 0.8 or higher? `C=CCNC(=O)[C@@H]1[C@H]2C(=O)O[C@H](c3ccccc3)[C@H](c3ccccc3)N2[C@H](c2ccc(O)cc2)[C@@]12C(=O)Nc1ccccc12`
[A] false (0)

[Q] Hi team, for `CCOC(=O)C[C@H]1[C@H](OC(=O)c2ccc(-c3ccccc3)cc2)[C@@H](NC(=O)C2CCCCC2)c2cc(OCCCO)ccc2N1C(=O)c1ccc2ccccc2n1` , is the recorded z-score at or above 0.8?
[A] true (1)

[Q] Hi, just wondering whether `C=CC[C@@H](OC(=O)Nc1ccc(SC)cc1)c1ccc(OCCO)cc1` shows z-score of 0.8 or higher.
[A] false (0)

----------
List of composite z-score values.
Test system: Human papillomavirus type 1a E7 protein (residues 1-88)
PROTOCOL NOTES: HPV1a E7 small-molecule binders, primary screen, biochemical, small-molecule microarray, residues 1-88, 635 nm (AID 1129)
TEST CONTEXT: small-molecule microarray binding, fluorescence 635 nm; higher = more signal
Answer field: number only, no words.

Use the examples below as a reference point.
GIVEN SMILES	composite z-score
CO[C@H]1O[C@H](CO)[C@@H](OC(=O)CCc2ccccc2)[C@@H]2OC(=O)[C@H](Cc3ccccc3)C/C=C/C[C@@H](Cc3ccccc3)C(=O)O[C@@H]12	-0.109
C=CCOC(=O)[C@H]1[C@@H]2C(=O)O[C@@H](c3ccccc3)[C@@H](c3ccccc3)N2[C@@H](c2ccc(OCCOC(=O)[C@H]3C[C@H]4C(=O)N5CCC[C@H]5C(=O)N4[C@H]3c3cccc(OCCO)c3)cc2)[C@]12C(=O)Nc1ccccc12	1.16
COC(=O)c1c(CC[C@@H](CO)NC(=O)Nc2ccc(OC)cc2)oc(C(=O)Cc2ccccc2)c1C(=O)OC	0.45
CC(C)(C)OC(=O)CC[C@@]12N=C(c3ccc(OCCCO)cc3)O[C@@H]1c1ccccc1N(Cc1ccccc1)C2=O	1
O=C(NC1CC1)[C@@H]1c2ccccc2C(=O)N(Cc2ccccc2C(F)(F)F)[C@H]1c1ccc(CO)cc1	1.1

Lab note: next molecule to report on.
Briefly, composite z-score measured for `Cc1ccc(N2C(=O)c3ccccc3[C@](C)(C(=O)NC3CC3)[C@@H]2c2ccc(CO)cc2)nc1` : -0.644
